Exercise: state measured IC50 for each of the compounds provided.
target_or_system: GST-JAK2(808-1132) (Homo sapiens, UniProt O60674)
Construct: GST-JAK2(808-1132); purchased Invitrogen (Carlsbad, USA) #4288
Sequence (O60674 808-1132): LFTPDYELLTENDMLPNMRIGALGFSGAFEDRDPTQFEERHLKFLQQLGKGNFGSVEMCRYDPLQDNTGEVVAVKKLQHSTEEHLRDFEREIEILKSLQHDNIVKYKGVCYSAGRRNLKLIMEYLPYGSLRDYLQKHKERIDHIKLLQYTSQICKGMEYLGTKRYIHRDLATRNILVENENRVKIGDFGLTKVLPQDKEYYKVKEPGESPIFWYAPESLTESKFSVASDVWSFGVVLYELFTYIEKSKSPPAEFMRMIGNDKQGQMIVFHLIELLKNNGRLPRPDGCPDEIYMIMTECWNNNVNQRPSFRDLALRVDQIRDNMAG
experiment_summary: EPK JAK-family kinases profiling assay (Caliper mobility shift), JAK2
Type: biochemical
particulars: ATP 20 μM, 1.8 nM kinase

// "O=S1(=O)CCN(Cc2c(F)cc(-c3cccc4ncc(-c5cccc(N6CCNCC6)c5)nc34)cc2F)CC1" : IC50 value = < 3 nM

IC50 recorded for this compound, "CCS(=O)(=O)c1ccc(-c2cccc3ncc(-c4ccc(O)c(OC)c4)nc23)cc1" , is 130 nM

Reported IC50 for "Cc1cc(-c2cnc3cccc(-c4ccc(CC(=O)N5CCOCC5)c(F)c4)c3n2)ccc1OCCCN1CCOCC1" was 59.5 nM

Notebook: "COc1cc(-c2cnc3cccc(-c4cc(F)c(CN5CCS(=O)(=O)CC5)c(F)c4)c3n2)ccc1OCCCN1CCOCC1" , IC50 read as < 3 nM

The compound identified as "Cc1cc(-c2cnc3cccc(-c4ccc(CN5CCS(=O)(=O)CC5)cc4)c3n2)ccc1C(=O)N1CCN(C)CC1" registered its IC50 at 7.3 nM

Lookup result for "Cc1cc(-c2cccc3ncc(-c4ccc(C(=O)N5CCN(C)CC5)c(C)c4)nc23)ccc1CN1CCS(=O)(=O)CC1" ; measured IC50: 27 nM

The recorded IC50 for entry "Cc1nn(C2CCN(C(=O)C(C)C)CC2)cc1-c1cnc2cccc(-c3cc(F)c(CN4CCOCC4)c(F)c3)c2n1" equals < 3 nM

This collection of values is drawn from patent US8193189B2.
